Where do the numbers come from? From patent US20120135923A1.

Molecular target: hMC4-R (Homo sapiens)
Construct: expressed in transfected cells; host or cells: CHO-K1
Sequence (P32245 whole entry): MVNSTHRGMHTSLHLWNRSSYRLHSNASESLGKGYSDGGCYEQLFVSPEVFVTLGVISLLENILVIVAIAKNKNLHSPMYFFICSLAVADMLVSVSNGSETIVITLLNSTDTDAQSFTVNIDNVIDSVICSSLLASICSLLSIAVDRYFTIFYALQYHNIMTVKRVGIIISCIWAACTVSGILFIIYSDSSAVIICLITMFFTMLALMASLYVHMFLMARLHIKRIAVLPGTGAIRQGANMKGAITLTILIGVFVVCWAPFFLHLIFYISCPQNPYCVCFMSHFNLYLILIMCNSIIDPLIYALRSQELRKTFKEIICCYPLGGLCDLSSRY
Test: Radioligand binding assay, [125I]-NDP-α-MSH competition, CHO-K1 membranes
Conditions: Table 5; read-out: Ki KMC4-R
Experimental: Cellular membranes used for the in vitro receptor binding assays were obtained from transgenic CHO-K1 cells stably expressing hMC-R receptor subtypes 1, 3, 4 or 5. […] The pellets were resuspended in the same buffer and centrifuged at 50,000 g for 10 minutes at approximately 4° C. The washed pellets containing the cellular membranes were stored at approximately −80° C. […]
Bridge positions count the residues as written; N and C are the ends. Square brackets hold non-standard residues; d marks the D form. Peptide text beside a SMILES is read from it. Bip = N[C@@H](Cc1ccc(-c2ccccc2)cc1)C(=O)O; hArg = N=C(N)NCCCC[C@H](N)C(=O)O; βAla = NCCC(=O)O
# maps each entry to its pKi
API: returns pKi as number; meaning -log10 of concentration in mol/L.

What measured pKi goes with C[C@@H](O)[C@H](NC(=O)[C@H]1CSSC[C@H](NC(=O)[C@H](N)Cc2ccccc2)C(=O)N[C@@H](Cc2c[nH]cn2)C(=O)N[C@H](Cc2ccccc2)C(=O)N[C@@H](CCCNC(=N)N)C(=O)N[C@@H](Cc2c[nH]c3ccccc23)C(=O)NCCC(=O)N1)C(N)=O (H-[dF]CH[dF]RW[βAla][dC]T-NH2; disulfide 2-8) ?
8.59

---
Any idea what pKi was measured for C[C@@H](O)[C@H](NC(=O)[C@H]1CSSC[C@H](NC(=O)[C@H](N)Cc2ccccc2)C(=O)N[C@@H](Cc2c[nH]cn2)C(=O)N[C@H](Cc2ccccc2)C(=O)N[C@@H](CCCCNC(=N)N)C(=O)N[C@@H](Cc2ccc(-c3ccccc3)cc2)C(=O)NCCC(=O)N1)C(N)=O (H-[dF]CH[dF][hArg][Bip][βAla][dC]T-NH2; disulfide 2-8 (inferred)) ?
6.76

---

biological target: hMC3-R (Homo sapiens); construct: expressed in transfected cells; host or cells: CHO-K1; experiment: cyclic AMP bioassay (ECL) in CHO-K1 cells; type: cell-based; settings: Table 11; read-out: EC50 hMC3
Sequence (P41968 whole entry): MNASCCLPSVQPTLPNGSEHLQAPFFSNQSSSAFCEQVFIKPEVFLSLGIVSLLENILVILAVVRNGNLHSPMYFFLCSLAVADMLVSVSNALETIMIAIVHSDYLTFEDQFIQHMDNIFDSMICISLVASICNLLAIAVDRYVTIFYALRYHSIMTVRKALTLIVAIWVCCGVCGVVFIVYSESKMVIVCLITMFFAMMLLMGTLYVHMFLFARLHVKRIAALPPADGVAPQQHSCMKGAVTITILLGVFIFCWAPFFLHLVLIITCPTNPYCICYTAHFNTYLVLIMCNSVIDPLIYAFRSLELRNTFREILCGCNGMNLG
pEC50: −log10 of the molar value.
value_type: pEC50

Solved cases below.
Param item = CCCC[C@@H]1NC(=O)N(CC(=O)N[C@H]2CSSC[C@@H](C(N)=O)NC(=O)[C@H](Cc3c[nH]c4ccccc34)NC(=O)[C@H](CCCNC(=N)N)NC(=O)[C@@H](Cc3ccccc3)NC(=O)[C@H](Cc3cnc[nH]3)NC(=O)[C@H](CCC(=O)O)NC2=O)C1=O ; retrieve measured pEC50.
7.91

Dear colleague, I am looking for the recorded pEC50 of the following compound: N=C(N)NCCC[C@@H]1NC(=O)[C@@H](Cc2ccccc2)NC(=O)[C@H](Cc2c[nH]cn2)NC(=O)[C@H](CCC(=O)O)NC(=O)[C@@H](NC(=O)CN2C(=O)N[C@@H](CCCNC(=N)N)C2=O)CSSC[C@@H](C(N)=O)NC(=O)[C@H](Cc2c[nH]c3ccccc23)NC1=O
8.10

a = N=C(N)NCCC[C@@H]1NC(=O)[C@@H](Cc2ccccc2)NC(=O)[C@H](Cc2cnc[nH]2)NC(=O)[C@H](CCC(=O)O)NC(=O)[C@@H](NC(=O)CN2C(=O)CNC2=O)CSSC[C@@H](C(N)=O)NC(=O)[C@H](Cc2c[nH]c3ccccc23)NC1=O
b = C[C@@H]1C(=O)N[C@@H](Cc2cnc[nH]2)C(=O)N[C@H](Cc2ccccc2)C(=O)N[C@@H](CCCNC(=N)N)C(=O)N[C@@H](Cc2c[nH]c3ccccc23)C(=O)N[C@H](C(N)=O)CNC(=O)C[C@@H]2NC(=O)N1C2=O
Which gives the smaller pEC50 number: a or b ? Provide the label of your selected option as the answer.
b

---

molecular target: hMC1-R (Homo sapiens, UniProt Q01726); construct: expressed in transfected cells; host or cells: CHO-K1; assay: cyclic AMP bioassay (ECL) in CHO-K1 cells; assay type: cell-based; details: Table 9A/9B; read-out: EC50 hMC1-R
Sequence (Q01726 whole entry): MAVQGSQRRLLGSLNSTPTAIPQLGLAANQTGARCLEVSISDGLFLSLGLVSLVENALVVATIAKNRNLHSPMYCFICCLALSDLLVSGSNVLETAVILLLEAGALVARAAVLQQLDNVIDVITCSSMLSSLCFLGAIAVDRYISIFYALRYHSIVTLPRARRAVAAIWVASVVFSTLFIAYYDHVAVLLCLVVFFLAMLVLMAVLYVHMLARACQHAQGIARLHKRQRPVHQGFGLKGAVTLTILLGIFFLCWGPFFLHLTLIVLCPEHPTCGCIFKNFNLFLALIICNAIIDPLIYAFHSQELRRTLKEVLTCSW
Bridge positions count the residues as written; N and C are the ends. Square brackets hold non-standard residues; d marks the D form. Peptide text beside a SMILES is read from it. Bta = N[C@@H](Cc1csc2ccccc12)C(=O)O; Nle = CCCC[C@H](N)C(=O)O; Ava = NCCCCC(=O)O; βAla = NCCC(=O)O
value_type: EC50 (nM)

Worked set:
Kindly state the measured EC50 obtained for CCOc1ccc(C[C@H]2NC(=O)[C@H](Cc3c[nH]cn3)NC(=O)[C@@H](NC(=O)[C@H](N)Cc3ccccc3)CSSC[C@H](C(=O)N[C@H](C(N)=O)[C@@H](C)O)NC(=O)CCNC(=O)[C@H](Cc3c[nH]c4ccccc34)NC(=O)[C@H](CCCNC(=N)N)NC2=O)cc1 (H-[dF]CH[dY](Et)RW[βAla][dC]T-NH2; disulfide 2-8) with hMC1-R (Homo sapiens, UniProt Q01726).
0.35

Item: CC(=O)N[C@@H](CCCNC(=N)N)C(=O)N[C@H]1CC(=O)NCCCC[C@@H](C(N)=O)NC(=O)[C@H](C)NC(=O)[C@H](Cc2c[nH]c3ccccc23)NC(=O)[C@H](CCCNC(=N)N)NC(=O)[C@@H](Cc2ccccc2)NC(=O)[C@H](Cc2c[nH]cn2)NC1=O Test system: hMC1-R (Homo sapiens, UniProt Q01726) Read-out: EC50 Value: ?
1.39

Please state recorded EC50 (tested on hMC1-R (Homo sapiens, UniProt Q01726)) of CCCC[C@H](N)C(=O)N[C@H]1CSSC[C@@H](C(N)=O)NC(=O)CCCCNC(=O)[C@H](Cc2c[nH]c3ccccc23)NC(=O)[C@H](CCCNC(=N)N)NC(=O)[C@@H](Cc2ccccc2)NC(=O)[C@H](Cc2c[nH]cn2)NC1=O [Nle-c(Cys-His-D-Phe-Arg-Trp-Apn-Cys)-NH2] (H-[Nle]CH[dF]RW[Ava]C-NH2; disulfide 2-8)
0.31

// fetch hMC1-R (Homo sapiens, UniProt Q01726) EC50 for CCCC[C@H](NC(C)=O)C(=O)N[C@H]1CC(=O)NCCCC[C@@H](C(N)=O)NC(=O)[C@H](Cc2csc3ccccc23)NC(=O)[C@H](CCCNC(=N)N)NC(=O)[C@@H](Cc2ccccc2)NC(=O)[C@H](Cc2c[nH]cn2)NC(=O)[C@@H](C)NC1=O (Ac-[Nle]D[dA]H[dF]R[Bta]K-NH2; lactam 2-8)
0.931

P = CC(=O)N[C@H](CCCNC(=N)N)C(=O)N[C@H]1CC(=O)NCCCC[C@@H](C(N)=O)NC(=O)[C@H](C)NC(=O)[C@H](Cc2c[nH]c3ccccc23)NC(=O)[C@H](CCCNC(=N)N)NC(=O)[C@@H](Cc2ccccc2)NC(=O)[C@H](Cc2c[nH]cn2)NC1=O
Q = CCCC[C@H](NC(C)=O)C(=O)N[C@H]1CSSC[C@@H](C(N)=O)NC(=O)[C@H](Cc2c[nH]c3ccccc23)NC(=O)[C@H](CCCNC(=N)N)NC(=O)[C@@H](Cc2ccccc2)NC(=O)[C@H](Cc2c[nH]cn2)NC(=O)[C@@H](CC(C)C)NC1=O
Out of P and Q , name the one with the higher EC50. Mark your selection by writing its label.
Q

---

biological target: hMC5-R (Homo sapiens); construct: expressed in transfected cells; host or cells: CHO-K1; experiment: Radioligand binding assay, [125I]-NDP-α-MSH competition, CHO-K1 membranes; conditions: Table 5; read-out: Ki hMC5-R
Sequence (P33032 whole entry): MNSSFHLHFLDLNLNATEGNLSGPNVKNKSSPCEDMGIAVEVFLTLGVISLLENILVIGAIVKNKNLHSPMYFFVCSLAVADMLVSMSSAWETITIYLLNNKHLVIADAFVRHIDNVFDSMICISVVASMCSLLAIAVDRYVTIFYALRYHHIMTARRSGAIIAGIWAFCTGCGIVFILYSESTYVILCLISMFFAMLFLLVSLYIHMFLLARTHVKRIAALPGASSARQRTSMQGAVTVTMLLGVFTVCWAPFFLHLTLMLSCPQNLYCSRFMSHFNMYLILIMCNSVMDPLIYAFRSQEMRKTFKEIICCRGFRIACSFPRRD
Bridge positions count the residues as written; N and C are the ends. Square brackets hold non-standard residues; d marks the D form. Peptide text beside a SMILES is read from it. Bip = N[C@@H](Cc1ccc(-c2ccccc2)cc1)C(=O)O; d2Nal = N[C@H](Cc1ccc2ccccc2c1)C(=O)O; Bta = N[C@@H](Cc1csc2ccccc12)C(=O)O; hArg = N=C(N)NCCCC[C@H](N)C(=O)O; Nle = CCCC[C@H](N)C(=O)O; Ahx = NCCCCCC(=O)O; βAla = NCCC(=O)O
value_type: Ki (nM)

Here's what some known entries look like.
What value of Ki has been reported for the following molecule? C[C@@H](O)[C@H](NC(=O)[C@H]1CSSC[C@H](NC(=O)[C@H](N)Cc2ccccc2)C(=O)N[C@@H](Cc2c[nH]cn2)C(=O)N[C@H](Cc2ccccc2)C(=O)N[C@@H](CCCNC(=N)N)C(=O)N[C@@H](Cc2c[nH]c3ccccc23)C(=O)NCCC(=O)N1)C(N)=O (H-[dF]CH[dF]RW[βAla][dC]T-NH2; disulfide 2-8)
344

What does the record list as Ki for CCOc1ccc(C[C@H]2NC(=O)[C@H](Cc3c[nH]cn3)NC(=O)[C@@H](NC(=O)[C@H](N)Cc3ccccc3)CSSC[C@H](C(=O)N[C@H](C(N)=O)[C@@H](C)O)NC(=O)CCNC(=O)[C@H](Cc3c[nH]c4ccccc34)NC(=O)[C@H](CCCCNC(=N)N)NC2=O)cc1 (H-[dF]CH[dY](Et)[hArg]W[βAla][dC]T-NH2; disulfide 2-8) ?
9.27

Ki lookup needed for CCCC[C@H](NC(C)=O)C(=O)N[C@H]1CSSC[C@@H](C(N)=O)NC(=O)[C@H](Cc2csc3ccccc23)NC(=O)[C@H](CCCNC(=N)N)NC(=O)[C@@H](Cc2ccc3ccccc3c2)NC(=O)[C@H](Cc2c[nH]cn2)NC(=O)[C@@H](C)NC1=O (Ac-[Nle]C[dA]H[d2Nal]R[Bta]C-NH2; disulfide 2-8) , thanks.
125

Need Ki of CCCC[C@H](NC(C)=O)C(=O)N[C@H]1CSSC[C@@H](C(N)=O)NC(=O)CCCCCNC(=O)[C@H](Cc2c[nH]c3ccccc23)NC(=O)[C@H](CCCNC(=N)N)NC(=O)[C@@H](Cc2ccc3ccccc3c2)NC(=O)[C@H](Cc2c[nH]cn2)NC1=O (Ac-[Nle]CH[d2Nal]RW[Ahx]C-NH2; disulfide 2-8 (inferred)) , thanks.
0.366

So what's the measured Ki for this one? CC(=O)N[C@@H](CC1CCCCC1)C(=O)N[C@H]1CC(=O)NCCCC[C@@H](C(N)=O)NC(=O)CCCNC(=O)[C@H](Cc2c[nH]c3ccccc23)NC(=O)[C@H](CCCNC(=N)N)NC(=O)[C@@H](Cc2ccc3ccccc3c2)NC(=O)[C@H](Cc2c[nH]cn2)NC1=O
3.91

I'd like to know its Ki. The molecule in question is C[C@@H](O)[C@H](NC(=O)[C@H]1CSSC[C@H](NC(=O)[C@H](N)Cc2ccccc2)C(=O)N[C@@H](Cc2c[nH]cn2)C(=O)N[C@H](Cc2ccccc2)C(=O)N[C@@H](CCCCNC(=N)N)C(=O)N[C@@H](Cc2ccc(-c3ccccc3)cc2)C(=O)NCCC(=O)N1)C(N)=O (H-[dF]CH[dF][hArg][Bip][βAla][dC]T-NH2; disulfide 2-8 (inferred))
1220

a = CCCC[C@H](NC(C)=O)C(=O)N[C@H]1CSSC[C@@H](C(N)=O)NC(=O)[C@H](Cc2c[nH]c3ccccc23)NC(=O)[C@H](CCCNC(=N)N)NC(=O)[C@@H](Cc2ccccc2)NC(=O)[C@H](Cc2c[nH]cn2)NC(=O)[C@@H](C(C)C)NC1=O
b = CC(=O)N[C@@H](CCCNC(=N)N)C(=O)N[C@H]1CC(=O)NCCCC[C@@H](C(N)=O)NC(=O)[C@H](C)NC(=O)[C@H](Cc2c[nH]c3ccccc23)NC(=O)[C@H](CCCNC(=N)N)NC(=O)[C@@H](Cc2ccccc2)NC(=O)[C@H](Cc2c[nH]cn2)NC1=O
Compare reported Ki values for a and b . Which is lower? Answer with the label corresponding to your selection.
a
